targetOrSystem: T1, ROR1 extracellular domain Fc fusion:Fc heterodimer, monomer (human)
T1 construct: Heterodimer of one ROR1 ECD-Fc chain and one Fc chain; also called ROR1 monomer; hROR1 monomeric ECD-Fc fusion protein; not shown: Fc part; Fc alone
T1 sequence (Q01973 30-406, one chain of several): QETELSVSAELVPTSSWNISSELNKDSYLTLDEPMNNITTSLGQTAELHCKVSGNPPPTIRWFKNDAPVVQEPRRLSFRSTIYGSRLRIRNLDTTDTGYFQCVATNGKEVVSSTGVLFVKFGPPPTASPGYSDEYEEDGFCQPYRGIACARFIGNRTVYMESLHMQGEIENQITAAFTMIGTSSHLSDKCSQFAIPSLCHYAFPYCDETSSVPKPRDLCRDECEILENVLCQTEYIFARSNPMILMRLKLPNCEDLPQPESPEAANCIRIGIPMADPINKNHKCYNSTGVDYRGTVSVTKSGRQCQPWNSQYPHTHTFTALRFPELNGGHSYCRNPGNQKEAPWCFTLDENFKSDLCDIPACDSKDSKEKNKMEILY
testProtocol: SPR, immobilised ROR1 monomer, antibody injected, 1:1 model
Mark each entry satisfied if its kon sits below 600000 M⁻¹ s⁻¹, and not satisfied for all others.

Please review the entries below; each comes with its answer.
binder	assignedLabel
Antibody 601-4 (antibody, V domains shown) VH: EVQLVQSGPGLVKPSGTLSLTCAVSGGSISSSNWWSWVRQPPGKGLEWIGEIYHSGSTNYNPSLKSRVTISVDKSKNQFSLKLGSVTAADTATYYCARDLWLGEWDLWGQGTLVTVSS VL: QSVLTQPPSASGAPGQRVTISCSGGISNVGTNGVNWYQHLPGTAPKLLVDAMNQRPSGVPDRFSGSRSGTSGSLAITGLRSEDEADYYCATWDDSLSGVLFGGGTKLTVLG	not satisfied
Antibody 601-149 (antibody, V domains shown) VH: EAQLVESGGGLVKPGGSLRLSCAASGFTFSDYYMGWVRQAPGKGLKWLSYISDRAHTIYDTDSVKGRFTISRDDAKSSLYLRMNNLRVEDTAVYYCARAVGAGEGFDYWGQGTLVTVSS VL: DIQLTQSPSSLSASVGDRVTITCQASQDVRNYLNWYQQKPGKAPNLLIYDATNLESGVPSRFSGSGSGTDFTFTISSLQPEDFATYYCQQYDNLPLSFGGGTKVEIK	not satisfied
Antibody 601-100 (antibody, V domains shown) VH: EVQLVQSGGGVVQPGGPLRLSCAASGFTFSSYSMNWVRQAPGKGLEWVSSISSSSSYIYYADSVKGRFTISRDNAKNSLYLQMNSLRAEDTAVYYCARGLGGWTHDAFDIWGQGTMVTVSS VL: QSALTQPASVSGSPGQSITISCTGTSRDVGGYDYVSWYQQYPGNAPKLMIYDVSRRPSGVSHRFSASKSGNTASLTISGLQTEDEADYYCSSYTSSSTRVFGGGTKVTVL	satisfied

Let's switch to this binder now.
Prompt: Consider Antibody 601-112 (antibody, V domains shown) VH: EVQLVQSGGDLVQPGGSLRLSCAASGFTFSSYSMNWVRQAPGKGLEWVSSISSSSSYIYYADSVKGRFTISRDNAKNSLYLQMNSLRAEDTAVYYCARGLGGWTHDAFDIWGQGTTVTVSS VL: QSALTQPASVSGSPGQSITISCTGTSSDVGGYNYVSWYQQHPGKAPKLMIYDVSKRPSGVSNRFSGSKSGNTASLTISGLQAEDEADYYCSSYTGRSTVFGGGTKLTVL . Does its kon lie strictly below 600000 M⁻¹ s⁻¹?
Response: satisfied

The measured values listed here are drawn from patent US20180009892A1.
